Entries and their Gal4 activity range @ 1 μM (% inhibition)
test.system: yeast Gal4-DNA binding domain fused to the ligand binding domain of human RORγ (Homo sapiens)
Construct: host or cells: HEK293t
Sequence (P51449 269-508 limits assumed): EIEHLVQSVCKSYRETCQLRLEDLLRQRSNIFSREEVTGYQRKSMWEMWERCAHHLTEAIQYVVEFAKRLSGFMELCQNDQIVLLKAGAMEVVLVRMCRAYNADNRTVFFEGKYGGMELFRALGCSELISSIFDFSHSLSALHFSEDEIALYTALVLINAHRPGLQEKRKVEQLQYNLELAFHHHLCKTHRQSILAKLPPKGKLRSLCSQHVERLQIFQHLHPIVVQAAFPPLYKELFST
experiment: RORγ Reporter Assay (Gal4)
Assay type: cell-based
protocol.conditions: RORγ Reporter Assay (Gal4) at 1 μM; values given as lower bounds of ranges

Solved cases below.
INSERT INTO results (compound, data_value) VALUES
  ('CC(C)(C)C[C@@H](Nc1ccnc(N2CCCC2c2ccc(C(F)(F)F)cc2)c1F)C(N)=O (stereo partly shown) [Example 39]', '>20 % inhibition'),
  ('O=S(=O)(NC1CC1)c1ccc(CNc2ncnc(N3CCOC[C@@H]3c3ccc(C(F)(F)F)cc3)c2F)cc1 [Example 236]', '>80 % inhibition'),
  ('N#CNC(=O)Cc1ccc(CNc2ncnc(N3CCOCC3c3ccc(C(F)(F)F)cc3)c2F)cc1 (stereo not shown) [Example 292]', '>20 % inhibition'),
  ('OC1(CNc2ncnc(N3CCOC[C@@H]3c3ccc(C(F)(F)F)cc3)c2F)CCOC1 (stereo partly shown) [Example 238]', '>50 % inhibition'),
  ('CC(=O)N1CCC(CNc2ncnc(N3CCC[C@@H]3c3ccc(C(F)(F)F)cc3)c2F)CC1 [Example 191]', '>80 % inhibition'),
  ('COc1ccc(CNc2ncnc(N3CCCC3c3ccc(C(F)(F)F)cc3)c2F)cc1OC (stereo not shown) [Example 53]', '>20 % inhibition'),
  ('NC(=O)Cc1ccc(Cn2ccc3c(N4CCOC[C@@H]4c4ccc(OC(F)(F)F)cc4)ncnc32)cc1 [Example 252]', '>80 % inhibition'),
  ('COc1ccc(C[C@@H](Nc2ncnc(N3CCCC3c3ccc(C(F)(F)F)cc3)c2F)C(N)=O)cc1 (stereo partly shown) [Example 17]', '>80 % inhibition');

Item: CS(=O)(=O)CC1(CNc2ncnc(N3CCC[C@@H]3c3ccc(C(F)(F)F)cc3)c2F)CCOCC1 [Example 240] | Gal4 activity range @ 1 μM (% inhibition): >80 % inhibition

Briefly, Gal4 activity range @ 1 μM (% inhibition) measured for COc1cc(CNc2ncnc(N3CCCC3c3ccc(C(F)(F)F)cc3)c2F)ccn1 (stereo not shown) [Example 113] : >80 % inhibition

Per the records, this compound ( Fc1c(NCc2ccc(Cn3ccnc3)cc2)ncnc1N1CCCC1c1ccc(C(F)(F)F)cc1 (stereo not shown) [Example 94] ) has Gal4 activity range @ 1 μM (% inhibition) equal to >80 % inhibition

Looking up Cc1c(N[C@H](CC(C)(C)C)C(N)=O)ncnc1N1CCCC1c1ccc(C(F)(F)F)cc1 (stereo partly shown) [Example 14] , I found its Gal4 activity range @ 1 μM (% inhibition) recorded as >0 % inhibition

Gal4 activity range @ 1 μM (% inhibition) recorded for this compound, Fc1c(NCC2CCOCC2)ncnc1N1CCC[C@@H]1c1ccc(C(F)(F)F)cc1 [Example 208] , is >80 % inhibition
